Taken from paper doi:10.1101/2023.12.12.571245v1.

target-entity: CcSHMT1 (Erigeron canadensis)
Construct: total CDS (1539 bp); homology model is a tetramer
Sequence (A0A8M0FGR5 1-513): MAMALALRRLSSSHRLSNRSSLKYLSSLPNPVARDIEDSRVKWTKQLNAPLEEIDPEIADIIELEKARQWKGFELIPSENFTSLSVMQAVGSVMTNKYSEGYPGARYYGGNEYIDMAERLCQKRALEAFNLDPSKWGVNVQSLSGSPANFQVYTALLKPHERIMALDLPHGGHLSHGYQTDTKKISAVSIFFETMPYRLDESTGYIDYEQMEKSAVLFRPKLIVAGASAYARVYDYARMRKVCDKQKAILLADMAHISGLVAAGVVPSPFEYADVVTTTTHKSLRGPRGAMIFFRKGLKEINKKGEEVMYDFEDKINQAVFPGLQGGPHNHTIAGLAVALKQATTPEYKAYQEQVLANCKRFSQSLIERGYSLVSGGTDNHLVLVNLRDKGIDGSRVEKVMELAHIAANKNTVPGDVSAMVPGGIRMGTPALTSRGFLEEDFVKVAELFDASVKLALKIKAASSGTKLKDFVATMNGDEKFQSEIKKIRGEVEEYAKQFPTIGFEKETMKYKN
protocol-notes: SHMT activity by benzaldehyde production from DL-β-phenylserine
Type: biochemical
applied-conditions: competitive versus DL-β-phenylserine; CAP 0.63-44.23 μM, assayed 0.5 h after CAP addition
readout-kind: pIC50
Reminder that pIC50 is minus the log10 of a molar concentration.

Test system CcSHMT1 (Erigeron canadensis); read-out pIC50; what value for CCCCCCCC(=O)O [Caprylic acid] ?
4.64

* * *

target-entity: CcSHMT1 (Erigeron canadensis, UniProt A0A8M0FGR5, V188L)
Construct: total CDS (1539 bp)
Sequence (A0A8M0FGR5 1-513 V188L): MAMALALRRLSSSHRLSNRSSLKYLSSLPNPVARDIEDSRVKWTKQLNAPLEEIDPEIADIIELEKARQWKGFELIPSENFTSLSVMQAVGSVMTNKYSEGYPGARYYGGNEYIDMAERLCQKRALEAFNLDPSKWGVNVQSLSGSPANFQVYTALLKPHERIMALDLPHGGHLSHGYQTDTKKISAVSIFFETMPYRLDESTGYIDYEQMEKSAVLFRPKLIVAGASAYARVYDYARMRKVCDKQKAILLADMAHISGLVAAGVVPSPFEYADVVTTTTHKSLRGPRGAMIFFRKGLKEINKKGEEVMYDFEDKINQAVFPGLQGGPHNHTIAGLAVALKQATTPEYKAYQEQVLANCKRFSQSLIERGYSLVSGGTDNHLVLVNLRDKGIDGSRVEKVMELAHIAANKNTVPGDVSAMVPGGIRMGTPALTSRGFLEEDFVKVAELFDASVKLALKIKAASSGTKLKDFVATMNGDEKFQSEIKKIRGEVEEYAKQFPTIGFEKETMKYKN
protocol-notes: microscale thermophoresis (MST)
readout-kind: pKd
Reminder that pKd is minus the log10 of a molar concentration.

Look up pKd: CCCCCCCC(=O)O [Caprylic acid]
4.55

* * *

target-entity: CcSHMT1 (Erigeron canadensis, UniProt A0A8M0FGR5)
Construct: total CDS (1539 bp); homology model is a tetramer
protocol-notes: microscale thermophoresis (MST)
Type: binding
applied-conditions: negative control; bound is the highest concentration tested, not a printed Kd; read-out: no binding up to 50 μM
readout-kind: Kd

Test system CcSHMT1 (Erigeron canadensis, UniProt A0A8M0FGR5); read-out Kd; what value for COc1cc(C(=O)O)ccc1O [Vanillic acid, reference compound] ?
> 50 µM

* * *

target-entity: CcSHMT1 (Erigeron canadensis, UniProt A0A8M0FGR5, S186A)
Construct: total CDS (1539 bp)
protocol-notes: microscale thermophoresis (MST)
readout-kind: Kd (µM)
Lab book: enter the figure in µM, no units written.

Look up Kd: "CCCCCCCC(=O)O"
15.5

* * *

target-entity: CcSHMT1 (Erigeron canadensis, UniProt A0A8M0FGR5)
Construct: total CDS (1539 bp); homology model is a tetramer
protocol-notes: microscale thermophoresis (MST)
Format: binding
applied-conditions: read-out: Kd
readout-kind: Kd (µM)
Lab book: enter the figure in µM, no units written.

Look up Kd: CCCCCCCC(=O)O [Caprylic acid]
12.3
